Source: BindingDB's records for patent US20230295119

Reported IC50 is given for each of the following compounds.
assay-details: JAK1, JAK2, and JAK3 Activity

CCC(=O)c1cnc(Nc2cnc(OCCN3CCN(C)CC3)cn2)cc1Nc1cccc(-c2ncn(C)n2)c1OC
< 5 nM

For the next question, use this compound.
**Query** Which IC50 is reported for this compound? CCC(=O)c1cnc(Nc2cc(C(C)NC)ncn2)cc1Nc1cccc(-c2ncn(C)n2)c1OC (configuration not stated)
**Result** < 5 nM

###

Examples of compounds with documented IC50 follow.
tested-on: Tyrosine-protein kinase JAK2 (Homo sapiens)
Sequence (O60674 whole entry): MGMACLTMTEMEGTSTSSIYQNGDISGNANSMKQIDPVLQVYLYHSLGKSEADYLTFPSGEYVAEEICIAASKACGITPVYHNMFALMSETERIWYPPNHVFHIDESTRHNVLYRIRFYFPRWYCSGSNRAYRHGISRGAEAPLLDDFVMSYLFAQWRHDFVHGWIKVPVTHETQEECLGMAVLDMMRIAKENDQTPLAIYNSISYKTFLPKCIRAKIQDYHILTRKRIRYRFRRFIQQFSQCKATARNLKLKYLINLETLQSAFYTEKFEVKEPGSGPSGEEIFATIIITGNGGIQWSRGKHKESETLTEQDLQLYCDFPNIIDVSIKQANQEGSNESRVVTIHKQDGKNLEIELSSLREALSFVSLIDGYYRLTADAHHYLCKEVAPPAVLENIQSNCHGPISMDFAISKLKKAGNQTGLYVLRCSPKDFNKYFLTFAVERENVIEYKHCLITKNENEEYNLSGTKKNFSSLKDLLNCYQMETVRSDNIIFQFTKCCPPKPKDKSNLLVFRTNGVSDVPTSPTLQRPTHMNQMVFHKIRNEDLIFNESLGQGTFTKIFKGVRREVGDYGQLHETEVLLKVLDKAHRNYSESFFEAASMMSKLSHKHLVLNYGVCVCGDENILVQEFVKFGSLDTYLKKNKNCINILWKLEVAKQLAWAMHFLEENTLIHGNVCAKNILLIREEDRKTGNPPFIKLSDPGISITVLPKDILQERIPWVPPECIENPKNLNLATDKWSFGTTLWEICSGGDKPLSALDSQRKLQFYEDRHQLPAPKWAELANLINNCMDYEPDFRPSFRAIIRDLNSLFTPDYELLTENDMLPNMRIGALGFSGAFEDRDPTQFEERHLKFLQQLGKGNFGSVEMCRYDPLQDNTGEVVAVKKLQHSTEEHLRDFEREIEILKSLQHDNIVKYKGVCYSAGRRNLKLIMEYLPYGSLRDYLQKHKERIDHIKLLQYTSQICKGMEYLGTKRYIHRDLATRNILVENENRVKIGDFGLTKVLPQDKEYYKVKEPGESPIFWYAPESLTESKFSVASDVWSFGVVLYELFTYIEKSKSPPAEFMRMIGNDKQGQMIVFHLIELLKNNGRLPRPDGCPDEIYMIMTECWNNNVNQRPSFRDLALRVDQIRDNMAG

CCC(=O)c1cnc(Nc2cnc(O[C@@H]3CCN(CC)C3)cn2)cc1Nc1cccc(-c2ncn(C)n2)c1OC
> 500 nM

--- query ---
**Query** IC50 of CCC(=O)c1cnc(Nc2cnc(OCCN3CCN(C)CC3)cn2)cc1Nc1cccc(-c2ncn(C)n2)c1OC on Tyrosine-protein kinase JAK2 (Homo sapiens)?
**Result** > 500 nM
